Ref: paper PMC5078989

system: panel of cancer cell lines; assay: Cell viability (CellTiter-Glo) dose-response across cancer cell line panel; format: cell-based, human; conditions: Homo sapiens, Hs 936.T cells;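 note: after 72 h compound incubation with CellTiter-Glo ATP readout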
quantity: EC50 (µM)
// return numeric value only (unit: µM, not printed)

Quick note, EC50 for COCc1ccccc1NCc1ccc([C@@H]2[C@H](O)CCCc3cncn32)c(-c2ccccc2Cl)c1 landed at 17.2

* * *

tested on: panel of cancer cell lines; experiment: Cell viability (CellTiter-Glo) dose-response across cancer cell line panel; assay type: cell-based, human; details: Homo sapiens, Panc 02.03, Panc 02.03;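 note: after 72 h compound incubation with CellTiter-Glo ATP readout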
quantity: pEC50
Interpret pEC50 as the negative base-10 log of the concentration measured in mol/L.

Short answer on panel of cancer cell lines for NS(=O)(=O)OC[C@@H]1C[C@@H](n2ccc3c(N[C@H]4CCc5ccccc54)ncnc32)C[C@@H]1O , pEC50: 5.46

* * *

system: panel of cancer cell lines; assay: Cell viability (CellTiter-Glo) dose-response across cancer cell line panel; assay type: cell-based, human; settings: Homo sapiens, LS180, LS 180;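 note: after 72 h compound incubation with CellTiter-Glo ATP readout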
quantity: pEC50
Interpret pEC50 as the negative base-10 log of the concentration measured in mol/L.

Answered examples (2):
COCc1ccccc1NCc1ccc([C@H]2[C@@H](O)CCCc3cncn32)c(-c2ccccc2Cl)c1	6.35
CC(C)C[C@H](NC(=O)[C@H](Cc1ccccc1)NC(=O)c1cnccn1)B(O)O	7.79

Alright, here's another compound for you.
Quick note, pEC50 for NS(=O)(=O)OC[C@@H]1C[C@@H](n2ccc3c(N[C@H]4CCc5ccccc54)ncnc32)C[C@@H]1O landed at 6.76

* * *

system: panel of cancer cell lines; assay: Cell viability (CellTiter-Glo) dose-response across cancer cell line panel; type: cell-based, human; conditions: Homo sapiens, NCI-H226, cell line NCI-H226;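 note: after 72 h compound incubation with CellTiter-Glo ATP readout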
quantity: EC50 (nM)
// return numeric value only (unit: nM, not printed)

Quick note, EC50 for CC(C)C[C@H](NC(=O)[C@H](Cc1ccccc1)NC(=O)c1cnccn1)B(O)O [Bortezomib] landed at 14.9

* * *

tested on: panel of cancer cell lines; assay: Cell viability (CellTiter-Glo) dose-response across cancer cell line panel; type: cell-based, human; settings: Homo sapiens, CAL-12T, CAL-12T cells;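 note: after 72 h compound incubation with CellTiter-Glo ATP readout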
quantity: pEC50
Interpret pEC50 as the negative base-10 log of the concentration measured in mol/L.

Quick note, pEC50 for COCc1ccccc1NCc1ccc([C@@H]2[C@H](O)CCCc3cncn32)c(-c2ccccc2Cl)c1 landed at 5.08

* * *

Reported EC50 values for the following compounds.
test system: panel of cancer cell lines; assay: Cell viability (CellTiter-Glo) dose-response across cancer cell line panel; format: cell-based, human; conditions: Homo sapiens, SNU878, SNU-878;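 note: after 72 h compound incubation with CellTiter-Glo ATP readout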
// return numeric value only (unit: nM, not printed)

Answered examples (2):
CC(C)C[C@H](NC(=O)[C@H](Cc1ccccc1)NC(=O)c1cnccn1)B(O)O	22.9
NS(=O)(=O)OC[C@@H]1C[C@@H](n2ccc3c(N[C@H]4CCc5ccccc54)ncnc32)C[C@@H]1O	746

Quick note, EC50 for COCc1ccccc1NCc1ccc([C@H]2[C@@H](O)CCCc3cncn32)c(-c2ccccc2Cl)c1 landed at 6720

* * *

system: panel of cancer cell lines; assay: Cell viability (CellTiter-Glo) dose-response across cancer cell line panel; format: cell-based, human; conditions: Homo sapiens, HPBALL, HPB-ALL;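 note: after 72 h compound incubation with CellTiter-Glo ATP readout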
Reported pEC50 values for the following compounds.
Interpret pEC50 as the negative base-10 log of the concentration measured in mol/L.

CC(C)C[C@H](NC(=O)[C@H](Cc1ccccc1)NC(=O)c1cnccn1)B(O)O [Bortezomib]	8.50

Quick note, pEC50 for COCc1ccccc1NCc1ccc([C@H]2[C@@H](O)CCCc3cncn32)c(-c2ccccc2Cl)c1 [CSN5i-2] landed at 5.99

Quick note, pEC50 for NS(=O)(=O)OC[C@@H]1C[C@@H](n2ccc3c(N[C@H]4CCc5ccccc54)ncnc32)C[C@@H]1O [MLN4924] landed at 6.48

* * *

system: panel of cancer cell lines; test: Cell viability (CellTiter-Glo) dose-response across cancer cell line panel; type: cell-based, human; settings: Homo sapiens, CHP-212, cell line CHP-212;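 note: after 72 h compound incubation with CellTiter-Glo ATP readout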
quantity: EC50 (nM)
// return numeric value only (unit: nM, not printed)

Quick note, EC50 for CC(C)C[C@H](NC(=O)[C@H](Cc1ccccc1)NC(=O)c1cnccn1)B(O)O landed at 5.04

* * *

tested on: panel of cancer cell lines; assay: Cell viability (CellTiter-Glo) dose-response across cancer cell line panel; format: cell-based, human; details: Homo sapiens, YAPC;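 note: after 72 h compound incubation with CellTiter-Glo ATP readout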
quantity: pEC50
Interpret pEC50 as the negative base-10 log of the concentration measured in mol/L.

Answered examples (2):
COCc1ccccc1NCc1ccc([C@H]2[C@@H](O)CCCc3cncn32)c(-c2ccccc2Cl)c1 [CSN5i-2]	6.24
NS(=O)(=O)OC[C@@H]1C[C@@H](n2ccc3c(N[C@H]4CCc5ccccc54)ncnc32)C[C@@H]1O [MLN4924]	6.69

Alright, here's another compound for you.
Quick note, pEC50 for CC(C)C[C@H](NC(=O)[C@H](Cc1ccccc1)NC(=O)c1cnccn1)B(O)O [Bortezomib] landed at 7.64

* * *

system: panel of cancer cell lines; experiment: Cell viability (CellTiter-Glo) dose-response across cancer cell line panel; type: cell-based, human; conditions: Homo sapiens, ONCO-DG-1, ONCO-DG-1 cells;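 note: after 72 h compound incubation with CellTiter-Glo ATP readout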
quantity: pEC50
Interpret pEC50 as the negative base-10 log of the concentration measured in mol/L.

Quick note, pEC50 for COCc1ccccc1NCc1ccc([C@@H]2[C@H](O)CCCc3cncn32)c(-c2ccccc2Cl)c1 landed at 5.13

* * *

System: panel of cancer cell lines
Experiment: Cell viability (CellTiter-Glo) dose-response across cancer cell line panel;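 note: after 72 h compound incubation with CellTiter-Glo ATP readout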
Assay type: cell-based, human
Conditions: Homo sapiens, SH-10-TC
Description: Next, we explored the effect of CSN5 inhibition on the viability of cancer cells. […] A standardized CellTiter-Glo Assay (Promega #G7570) based on the quantification of ATP was applied according to the manufacturer's protocol to measure the amount of viable cells in culture. […] EC50 values were calculated from the plot of percentage of inhibition versus inhibitor concentration using the nonlinear regression analysis software Origin 7.5SR6 (OriginLab Corp.).
quantity: pEC50
Interpret pEC50 as the negative base-10 log of the concentration measured in mol/L.

NS(=O)(=O)OC[C@@H]1C[C@@H](n2ccc3c(N[C@H]4CCc5ccccc54)ncnc32)C[C@@H]1O	4.72

Alright, here's another compound for you.
Quick note, pEC50 for COCc1ccccc1NCc1ccc([C@H]2[C@@H](O)CCCc3cncn32)c(-c2ccccc2Cl)c1 landed at 5.86

* * *

Tested on: panel of cancer cell lines
Experiment: Cell viability (CellTiter-Glo) dose-response across cancer cell line panel;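 note: after 72 h compound incubation with CellTiter-Glo ATP readout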
Format: cell-based, human
Conditions: Homo sapiens, KMS-11, KMS-11 cells
Experimental: Next, we explored the effect of CSN5 inhibition on the viability of cancer cells. […] A standardized CellTiter-Glo Assay (Promega #G7570) based on the quantification of ATP was applied according to the manufacturer's protocol to measure the amount of viable cells in culture. […] EC50 values were calculated from the plot of percentage of inhibition versus inhibitor concentration using the nonlinear regression analysis software Origin 7.5SR6 (OriginLab Corp.).
quantity: pEC50
Interpret pEC50 as the negative base-10 log of the concentration measured in mol/L.

Short answer on panel of cancer cell lines for COCc1ccccc1NCc1ccc([C@@H]2[C@H](O)CCCc3cncn32)c(-c2ccccc2Cl)c1 , pEC50: 4.54

* * *

system: panel of cancer cell lines; assay: Cell viability (CellTiter-Glo) dose-response across cancer cell line panel; format: cell-based, human; conditions: Homo sapiens, MDA-MB-435S, MDA-MB-435S cells;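 note: after 72 h compound incubation with CellTiter-Glo ATP readout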
quantity: EC50 (µM)
// return numeric value only (unit: µM, not printed)

Quick note, EC50 for COCc1ccccc1NCc1ccc([C@@H]2[C@H](O)CCCc3cncn32)c(-c2ccccc2Cl)c1 landed at 12

* * *

Reported EC50 values for the following compounds.
system: panel of cancer cell lines; assay: Cell viability (CellTiter-Glo) dose-response across cancer cell line panel; type: cell-based, human; settings: Homo sapiens, CAL-85-1, CAL-85-1;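 note: after 72 h compound incubation with CellTiter-Glo ATP readout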
// return numeric value only (unit: µM, not printed)

COCc1ccccc1NCc1ccc([C@H]2[C@@H](O)CCCc3cncn32)c(-c2ccccc2Cl)c1	7.99

Short answer on panel of cancer cell lines for NS(=O)(=O)OC[C@@H]1C[C@@H](n2ccc3c(N[C@H]4CCc5ccccc54)ncnc32)C[C@@H]1O , EC50: 0.144

* * *

system: panel of cancer cell lines; assay: Cell viability (CellTiter-Glo) dose-response across cancer cell line panel; assay type: cell-based, human; conditions: Homo sapiens, JHH-2, cell line JHH-2;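 note: after 72 h compound incubation with CellTiter-Glo ATP readout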
quantity: EC50 (nM)
// return numeric value only (unit: nM, not printed)

Quick note, EC50 for CC(C)C[C@H](NC(=O)[C@H](Cc1ccccc1)NC(=O)c1cnccn1)B(O)O landed at 18.3
